Catalogue of sequences with associated collision cross section
- protocol.summary: collision cross section of unmodified peptide (TIMS, N2, iRT-aligned); higher = larger / more extended gas-phase ion
- protocol.conditions: charge state: 2
quantity.name: collision cross section (Å²)

- VGVEVPDVNIEGPEGKLK: 456.21
- TEVLSPNSKVESK: 418.58
- GDNGSVGEPGPK: 342.97
- GRGAANDSTQFTVAGR: 411.19
- IVFSGNLFQHQEDSKK: 493.09
- DKALPLEAEVAPVK: 407.43
- GGGGGRGGLHDFR: 368.29
- SISQSISGQK: 337.94
- RLPNVHGR: 332.52
- LLFSNTAAQKLR: 416.62
- LGVATVAKGVCGACK: 433.92
- SPASDTYIVFGEAK: 403.4
- GLPGEKGER: 342.99
- SFDEVEGVFGRGGGR: 414.68
- LDLSSLAYSGK: 363.06
- KITESVAETAQTIK: 420.69
- GGGGGGGGGAPRGR: 341.22
- APPIDRSILPTAPR: 416.59
- GNPGVGTQGPR: 333.35
- GLATFPSRGAK: 368.08
- VYIASSSGSTAIKK: 426.35
- AYILNLVK: 331.04
- YHEDIFGLTLR: 388.91
- VGTASVLQPVKK: 400.02
- GSLGAQKLANTCFNEIEK: 483.18
- VVPGYGHAVLR: 378.3
- DYSVTANSK: 329.32
- GGPGGELPRGPQAGLGPR: 431.54
- SYHLQIVTK: 344.3
- GRGYFEHR: 340.02
- VGYPGPSGPLGARGIPGIK: 447.51
- RLPTTGYLVYR: 389.8
- YVGESEANIR: 358.37
- DTPTSAGPNSFNKGK: 410.87
- GEKGNPGVGTQGPR: 370.3
- TTGFYSGFSEVAEKR: 454.17
- DYSQPTAAATVQDIK: 421.28
- INNFSADIKDSK: 403.18
- GEVQVSDKER: 363.87
- GRGLPGPAESLR: 364.16
- SSSAGGQGSYVPLLR: 402.55
- QQETAAAETETR: 373.98
- LLEQKTQESQK: 394.71
- SSFAYKDQNENR: 418.44
- VGLQVVAVKAPGFGDNR: 462.44
- GYLGPEQLPDCLK: 401.23
- IHNAENIQPGEQKYEYK: 475.76
- VDATADYICK: 353.92
- YIEIYVQKVNPSR: 435.38
- GSELQNYFTK: 364.76
- SVSSSSYR: 308.48
- GYGVIFANGNR: 361.55
- PGPQPSAETTR: 342.87
- GGRGTPGK: 284.56
- GTPGKPGPR: 311.01
- SGNLTEDDKHNNAK: 412.58
- TATLATLATR: 333.86
- RFSPPSSSLQPGK: 393.03
- IGAEVYHHLK: 371.39
- GSLEKGSPEDK: 350.53
- DASTLQSQKAEGTGDAK: 442.88
- GEIGPPGPR: 309.77
- GERGFPGYPGPK: 366.2
- LRQQLQAK: 346.98
- GPPGPPGK: 285.24
- LGPPGNPGPSGSPGPKGQK: 422.18
- GEPGIPAIPGIRGPK: 382.37
- GIGRGTVQALHATGAR: 428.55
